test system: 786-0 renal; experiment: NCI tumour cell line growth inhibition, 48 h
As shown below, each of these compounds has a reported TGI value.
measured.endpoint: TGI

>  <compound>
CCSCCC(N)C(=O)O (stereo not drawn)

>  <reported.measurement>
> 100 µM

$$$$
>  <compound>
COc1ccc(-c2nc3sc4c(c3c(=O)[nH]2)CCCCCC4)cc1

>  <reported.measurement>
> 33.2 µM

$$$$
>  <compound>
COc1cc(/C=C/c2cc(O)c3cc(C(C)=O)c(=O)oc3c2)cc2c1O[C@]1(C)CC[C@@H](O)C(C)(C)[C@H]1C2

>  <reported.measurement>
> 25.3 µM

$$$$

----------
Each entry below carries its reported TGI.
tested on: KM12 colon; assay: NCI tumour cell line growth inhibition, 48 h

>  <molecule>
COc1cc(OC(C)=O)cc2c(OC(C)=O)ccc(OC(C)=O)c12

>  <target.of.assay>
KM12 colon

>  <TGI>
> 100 µM

$$$$
>  <molecule>
Cc1ccc(N=Cc2ccc3c(c2)OCO3)cc1C

>  <target.of.assay>
KM12 colon

>  <TGI>
> 100 µM

$$$$
>  <molecule>
Oc1cccc2ccc(N/N=C/c3cc(CN4CCCCC4)c(O)c4ncccc34)nc12

>  <target.of.assay>
KM12 colon

>  <TGI>
1.85 µM

$$$$
>  <molecule>
NC(=O)N/N=C1\CCCCc2ccccc21

>  <target.of.assay>
KM12 colon

>  <TGI>
> 10 µM

$$$$
>  <molecule>
Cc1ccccc1[P+](Cc1ccccc1)(c1ccccc1)c1ccccc1

>  <target.of.assay>
KM12 colon

>  <TGI>
15.1 µM

$$$$
>  <molecule>
O=C1C=C2C(=NC34CCCCC3C(c3ccccc3)C3=C(c5ccccc5CC3)N24)c2ccccc21 (stereo not drawn)

>  <target.of.assay>
KM12 colon

>  <TGI>
> 10 µM

$$$$
>  <molecule>
COC(=O)C(CC12CC3CC(CC(C3)C1)C2)NC(=O)C(N)CC(=O)O (stereo not drawn)

>  <target.of.assay>
KM12 colon

>  <TGI>
> 100 µM

$$$$
>  <molecule>
C/C(=N/NC(=S)Nc1ccc([N+](=O)[O-])cc1)c1cccc(/C(C)=N\NC(=S)Nc2ccc([N+](=O)[O-])cc2)n1

>  <target.of.assay>
KM12 colon

>  <TGI>
> 35.7 µM

$$$$

----------
system: SNB-78 CNS; assay: NCI tumour cell line growth inhibition, 48 h
measured.endpoint: TGI

>  <compound>
COc1cc(OC(C)=O)cc2c(OC(C)=O)ccc(OC(C)=O)c12

>  <target.of.assay>
SNB-78 CNS

>  <measured.endpoint>
TGI

>  <reported.measurement>
> 100 µM

$$$$
>  <compound>
Cc1c(/C=N/NC(=O)c2cc(Br)cc(Br)c2O)c(=O)n(-c2ccccc2)n1C

>  <target.of.assay>
SNB-78 CNS

>  <measured.endpoint>
TGI

>  <reported.measurement>
> 100 µM

$$$$
>  <compound>
C#CCOCn1cnc2c(Cl)ncnc21

>  <target.of.assay>
SNB-78 CNS

>  <measured.endpoint>
TGI

>  <reported.measurement>
> 100 µM

$$$$
>  <compound>
Cc1cccc2nc3c(C(=O)NCCN(C)C)cccc3cc12

>  <target.of.assay>
SNB-78 CNS

>  <measured.endpoint>
TGI

>  <reported.measurement>
12.6 µM

$$$$
>  <compound>
NC(=O)N=C(N(Cc1ccccc1)Cc1ccccc1)N(Cc1ccccc1)Cc1ccccc1

>  <target.of.assay>
SNB-78 CNS

>  <measured.endpoint>
TGI

>  <reported.measurement>
> 100 µM

$$$$
>  <compound>
CC1C=C(OC(=O)c2ccccc2)C(=O)C(n2cc(F)c(=O)[nH]c2=O)O1 (stereo unspecified)

>  <target.of.assay>
SNB-78 CNS

>  <measured.endpoint>
TGI

>  <reported.measurement>
> 100 µM

$$$$
